Molecular target: T1, TNFR1 (Homo sapiens, UniProt P19438)
T1 chain: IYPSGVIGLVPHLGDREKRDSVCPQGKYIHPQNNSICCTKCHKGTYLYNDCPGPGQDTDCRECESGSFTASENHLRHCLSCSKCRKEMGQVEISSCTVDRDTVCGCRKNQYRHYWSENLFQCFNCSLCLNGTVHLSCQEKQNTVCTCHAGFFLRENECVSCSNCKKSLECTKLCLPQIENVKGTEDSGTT
Assay: yeast display SC50
result-type: apparent Kd (screen) (nM)
Numbers only, in nM.

Examples with their reported apparent Kd (screen) follow.
A51D (designed binder) SMEEEVEKAAKEYEKKKKEAIEKHLEKLKAKDKEAAERFLKELEEAAKEYDKDEAKTMSEEEAKRRAKKYKEKVLLSELSEEEQKEIKEAEEKLVRTILKYVEEAAK
12.5
K23L (designed binder) SMEEEVEKAAKEYEKKKKEAIELHLEKLKAKDKEAAERFLKELEEAAKEYAKDEAKTMSEEEAKRRAKKYKEKVLLSELSEEEQKEIKEAEEKLVRTILKYVEEAAK
0.79
E19M (designed binder) SMEEEVEKAAKEYEKKKKMAIEKHLEKLKAKDKEAAERFLKELEEAAKEYAKDEAKTMSEEEAKRRAKKYKEKVLLSELSEEEQKEIKEAEEKLVRTILKYVEEAAK
0.446
Y70T (designed binder) SMEEEVEKAAKEYEKKKKEAIEKHLEKLKAKDKEAAERFLKELEEAAKEYAKDEAKTMSEEEAKRRAKKTKEKVLLSELSEEEQKEIKEAEEKLVRTILKYVEEAAK
7.07
A46S (designed binder) SMEEEVEKAAKEYEKKKKEAIEKHLEKLKAKDKEAAERFLKELEESAKEYAKDEAKTMSEEEAKRRAKKYKEKVLLSELSEEEQKEIKEAEEKLVRTILKYVEEAAK
0.49
A90W (designed binder) SMEEEVEKAAKEYEKKKKEAIEKHLEKLKAKDKEAAERFLKELEEAAKEYAKDEAKTMSEEEAKRRAKKYKEKVLLSELSEEEQKEIKEWEEKLVRTILKYVEEAAK
0.49
A67R (designed binder) SMEEEVEKAAKEYEKKKKEAIEKHLEKLKAKDKEAAERFLKELEEAAKEYAKDEAKTMSEEEAKRRRKKYKEKVLLSELSEEEQKEIKEAEEKLVRTILKYVEEAAK
7.07
K68N (designed binder) SMEEEVEKAAKEYEKKKKEAIEKHLEKLKAKDKEAAERFLKELEEAAKEYAKDEAKTMSEEEAKRRANKYKEKVLLSELSEEEQKEIKEAEEKLVRTILKYVEEAAK
0.653

Exam item: Report measured apparent Kd (screen); entry is I87A (designed binder) SMEEEVEKAAKEYEKKKKEAIEKHLEKLKAKDKEAAERFLKELEEAAKEYAKDEAKTMSEEEAKRRAKKYKEKVLLSELSEEEQKEAKEAEEKLVRTILKYVEEAAK
Marked response: 13.8
